- Measurement Target: Androgen receptor (Homo sapiens, UniProt P10275)
- Sequence (P10275 whole entry): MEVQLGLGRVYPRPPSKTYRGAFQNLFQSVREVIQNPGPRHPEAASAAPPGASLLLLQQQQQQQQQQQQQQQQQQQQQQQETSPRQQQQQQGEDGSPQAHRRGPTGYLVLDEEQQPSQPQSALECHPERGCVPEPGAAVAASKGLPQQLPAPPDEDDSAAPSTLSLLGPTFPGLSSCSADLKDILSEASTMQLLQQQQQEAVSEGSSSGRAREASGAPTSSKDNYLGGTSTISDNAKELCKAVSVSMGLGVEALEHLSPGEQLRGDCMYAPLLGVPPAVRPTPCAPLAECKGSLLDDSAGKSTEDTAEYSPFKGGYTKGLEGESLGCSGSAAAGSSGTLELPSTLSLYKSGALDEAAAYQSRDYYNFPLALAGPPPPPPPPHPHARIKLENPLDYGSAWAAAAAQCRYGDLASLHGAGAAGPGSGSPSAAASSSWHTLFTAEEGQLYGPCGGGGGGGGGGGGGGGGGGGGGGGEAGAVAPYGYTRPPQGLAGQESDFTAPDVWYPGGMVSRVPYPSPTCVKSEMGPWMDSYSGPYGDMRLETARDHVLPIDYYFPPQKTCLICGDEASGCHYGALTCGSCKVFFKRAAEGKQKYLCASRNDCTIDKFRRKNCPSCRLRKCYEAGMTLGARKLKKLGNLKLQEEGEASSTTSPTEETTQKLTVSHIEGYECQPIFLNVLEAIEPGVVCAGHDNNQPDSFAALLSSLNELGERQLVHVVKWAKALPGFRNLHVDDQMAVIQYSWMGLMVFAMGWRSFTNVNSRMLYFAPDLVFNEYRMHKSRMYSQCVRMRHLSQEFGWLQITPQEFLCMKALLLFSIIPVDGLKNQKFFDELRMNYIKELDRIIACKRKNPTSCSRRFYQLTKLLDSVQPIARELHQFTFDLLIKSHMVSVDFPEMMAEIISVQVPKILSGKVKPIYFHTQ
- Test Name: Antagonist activity at androgen receptor expressed in human LNAR cells assessed as inhibition of R1881-induced luciferase activity by spectrophotometry
pIC50: −log10 of the molar value.
Measured pIC50, listed per entry.
Parameter: pIC50

compound="CC(O)CN1CC(C)(C)[C@@H](Oc2ccc(C#N)c(C(F)(F)F)c2)C1=O (single isomer, unassigned)" measurement_target="Androgen receptor (Homo sapiens, UniProt P10275)" observed_measurement=6.01
compound=CC1(C)CN(CCC#N)C(=O)[C@@H]1Oc1ccc(C#N)c(C(F)(F)F)c1 measurement_target="Androgen receptor (Homo sapiens, UniProt P10275)" observed_measurement=6.88
compound="CC(c1nnc(-c2cccc(F)c2)o1)N1CC(C)(C)C(Oc2ccc(C#N)c(C(F)(F)F)c2)C1=O (racemic)" measurement_target="Androgen receptor (Homo sapiens, UniProt P10275)" observed_measurement=7.11
compound="CC(CO)N1CC(C)(C)[C@@H](Oc2ccc(C#N)c(C(F)(F)F)c2)C1=O (stereo in doubt; 14)" measurement_target="Androgen receptor (Homo sapiens, UniProt P10275)" observed_measurement=6.43
compound=CC(=O)CN1CC(C)(C)[C@@H](Oc2ccc(C#N)c(C(F)(F)F)c2)C1=O measurement_target="Androgen receptor (Homo sapiens, UniProt P10275)" observed_measurement=6.58
compound="CC(O)CN1CC(C)(C)[C@@H](Oc2ccc(C#N)c(C(F)(F)F)c2)C1=O (stereo in doubt; 18)" measurement_target="Androgen receptor (Homo sapiens, UniProt P10275)" observed_measurement=6.67
compound="CC(CO)N1CC(C)(C)[C@@H](Oc2ccc(C#N)c(C(F)(F)F)c2)C1=O (stereo in doubt; 15)" measurement_target="Androgen receptor (Homo sapiens, UniProt P10275)" observed_measurement=6.47
compound=CC1(C)CNC(=O)[C@@H]1Oc1ccc(C#N)c(C(F)(F)F)c1 measurement_target="Androgen receptor (Homo sapiens, UniProt P10275)" observed_measurement=6.98

---

- Measurement Target: Androgen receptor (Homo sapiens) (UniProt P10275)
- Sequence (P10275 whole entry): as above
- Test Name: Antagonist activity at androgen receptor expressed in human LNAR cells assessed as inhibition of R1881-induced luciferase activity at 1 uM by spectrophotometry
- Assay type: functional, cell-based
Everything with inhibition lower than 80% is NOT MET; everything else, including exactly 80%, is MET.

molecule="CC(O)(CO)CN1CC(C)(C)[C@@H](Oc2ccc(C#N)c(C(F)(F)F)c2)C1=O (stereo in doubt; 25)" assigned_category="NOT MET"
molecule=CC1(C)CN(CC#N)C(=O)[C@@H]1Oc1ccc(C#N)c(C(F)(F)F)c1 assigned_category=MET
molecule="CNC(=O)CN1CC(C)(C)C(Oc2ccc(C#N)c(C(F)(F)F)c2)C1=O (racemic)" assigned_category="NOT MET"
molecule=CC1(C)CN(CCC#N)C(=O)[C@@H]1Oc1cc(C(F)(F)F)c(C#N)cn1 assigned_category="NOT MET"
molecule=CC(C)(O)CN1CC(C)(C)[C@@H](Oc2ccc(C#N)c(C(F)(F)F)c2)C1=O assigned_category="NOT MET"
molecule=CC1(C)CN(CCC#N)C(=O)[C@@H]1Oc1ccc(C#N)cc1 assigned_category="NOT MET"
molecule=CCCCN1CC(C)(C)[C@@H](Oc2ccc(C#N)c(C(F)(F)F)c2)C1=O assigned_category=MET
molecule=CCCN1CC(C)(C)[C@@H](Oc2ccc(C#N)c(C(F)(F)F)c2)C1=O assigned_category=MET
molecule=CC1(C)CN(CCC#N)C(=O)[C@@H]1Oc1cnc(C#N)c(C(F)(F)F)c1 assigned_category="NOT MET"
molecule=CC1(C)CN(CCCO)C(=O)[C@@H]1Oc1ccc(C#N)c(C(F)(F)F)c1 assigned_category=MET
molecule="CC(CO)CN1CC(C)(C)[C@@H](Oc2ccc(C#N)c(C(F)(F)F)c2)C1=O (stereo in doubt; 22)" assigned_category=MET
molecule="CC(O)(CO)CN1CC(C)(C)[C@@H](Oc2ccc(C#N)c(C(F)(F)F)c2)C1=O (stereo in doubt; 24)" assigned_category="NOT MET"

---

- Measurement Target: Androgen receptor (Homo sapiens)
- Test Name: Agonist activity at androgen receptor expressed in human LNAR cells as induction of luciferase activity by spectrophotometry relative to untreated control
- Type: functional, cell-based
Parameter: fold change (FC)

molecule="CC(O)CN1CC(C)(C)[C@@H](Oc2ccc(C#N)c(C(F)(F)F)c2)C1=O (stereo in doubt; 18)" observed_measurement=0.99
molecule="CC(O)(CO)CN1CC(C)(C)[C@@H](Oc2ccc(C#N)c(C(F)(F)F)c2)C1=O (stereo in doubt; 24)" observed_measurement=1.01
molecule="CC(CO)N1CC(C)(C)[C@@H](Oc2ccc(C#N)c(C(F)(F)F)c2)C1=O (stereo in doubt; 15)" observed_measurement=1.02
molecule=CC1(C)CN(CCC#N)C(=O)[C@@H]1Oc1ccc(C#N)c(Cl)c1 observed_measurement=0.99
molecule="CC(CO)CN1CC(C)(C)[C@@H](Oc2ccc(C#N)c(C(F)(F)F)c2)C1=O (stereo in doubt; 22)" observed_measurement=1.01
